# Assay Target: Chymase (Homo sapiens, UniProt P23946)
# Sequence (P23946 whole entry): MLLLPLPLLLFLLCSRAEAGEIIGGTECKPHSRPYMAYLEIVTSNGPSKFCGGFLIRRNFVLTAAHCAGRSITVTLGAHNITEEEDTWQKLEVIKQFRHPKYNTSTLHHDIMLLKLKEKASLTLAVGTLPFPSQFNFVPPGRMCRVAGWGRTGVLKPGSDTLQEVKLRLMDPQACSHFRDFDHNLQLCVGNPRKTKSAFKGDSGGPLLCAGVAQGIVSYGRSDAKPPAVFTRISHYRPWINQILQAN
Readout Kind: IC50 (nM)
One number for each entry, in nM.

[[record]]
smiles = "CC(C)C[C@H](NC(=O)[C@H](Cc1ccccc1)NC(=O)c1cnccn1)B(O)O"
units_symbol = "nM"
observed_measurement = 1190


Quick one: give measured IC50 for `CC(C)C[C@H](NC(=O)[C@@H](NC(=O)c1cccc(-c2ccccc2)n1)[C@@H](C)O)B(O)O`
3530

----------
# Protocol Details: Volume of distribution at steady state in CD1 mouse at 4 mg/kg, iv
# Assay type: ADME, organism-based
# Parameters: dose 4 mg/kg, route intravenous
# Details: in vivo, read-out: Vdss
Readout Kind: Vd (L/kg)
Give bare numbers, in L/kg.

Quick one: give measured Vd for `CC(C)C[C@H](NC(=O)[C@@H](NC(=O)c1cccc(-c2ccccc2)n1)[C@@H](C)O)B(O)O`
10.3
